Answer each item with its documented MIC.
# System: Klebsiella pneumoniae
# assay.summary: Antibacterial activity against Klebsiella pneumoniae 09-22 after 18 to 24 hrs by twofold serial dilution method
# Assay type: functional
One number for each entry, in µg/mL.

Use these answered entries as a reference point.
compound | MIC (µg/mL)
CCO/N=C1\CN(c2c(F)cc3c(=O)c(C(=O)O)cn(C4CC4)c3c2OC)CC1/C(N)=N\OC (configuration not stated) | 4
CCO/N=C(/N)C1CN(c2c(F)cc3c(=O)c(C(=O)O)cn(CCF)c3c2F)C/C1=N\OC (configuration not stated) | 2
CO/N=C1\CN(c2c(F)cc3c(=O)c(C(=O)O)cn(C4CC4)c3c2OC(F)F)CC1/C(N)=N\O (configuration not stated) | 64
CCO/N=C1\CN(c2c(F)cc3c(=O)c(C(=O)O)cn(C4CC4)c3c2OC)CC1/C(N)=N\OCC (configuration not stated) | 32
CCO/N=C1\CN(c2nc3c(cc2F)c(=O)c(C(=O)O)cn3-c2ccc(F)cc2F)CC1/C(N)=N\OC (configuration not stated) | 32
CCO/N=C1\CN(c2c(F)cc3c(=O)c(C(=O)O)cn(C4CC4)c3c2OC(F)F)CC1/C(N)=N\OCC (configuration not stated) | 64
CCn1cc(C(=O)O)c(=O)c2cc(F)c(N3C/C(=N\OC)C(/C(N)=N\O)C3)c(F)c21 (configuration not stated) | 1
C[C@H]1COc2c(N3CCN(C)CC3)c(F)cc3c(=O)c(C(=O)O)cn1c23.C[C@H]1COc2c(N3CCN(C)CC3)c(F)cc3c(=O)c(C(=O)O)cn1c23.O [LEVOFLOXACIN] | 16

Hello, I would appreciate it if you could give MIC for each entry below.
1. CCO/N=C1\CN(c2nc3c(cc2F)c(=O)c(C(=O)O)cn3C2CC2)CC1/C(N)=N\OC (configuration not stated)
2. CCO/N=C(/N)C1CN(c2c(F)cc3c(=O)c(C(=O)O)cn(C4CC4)c3c2F)C/C1=N\OC (configuration not stated)
3. CO/N=C1\CN(c2c(F)cc3c(=O)c(C(=O)O)cn4c3c2OC[C@@H]4C)CC1/C(N)=N\OC (some centres not stated)
4. CCO/N=C(/N)C1CN(c2nc3c(cc2F)c(=O)c(C(=O)O)cn3-c2ccc(F)cc2F)C/C1=N\OC (configuration not stated)

### Response
1: 1; 2: 2; 3: 0.5; 4: 32

====

# Tested on: Enterococcus faecium
# assay.summary: Antibacterial activity against Enterococcus faecium 08-7 after 18 to 24 hrs by twofold serial dilution method
# Type: functional
readout.name: MIC

molecule | readout.name | meas.value
CCO/N=C(/N)C1CN(c2nc3c(cc2F)c(=O)c(C(=O)O)cn3C2CC2)C/C1=N\OC (centres undefined) | MIC | > 128 µg/mL
CO/N=C1\CN(c2c(F)cc3c(=O)c(C(=O)O)cn(C4CC4)c3c2OC)CC1/C(N)=N\O (centres undefined) | MIC | > 128 µg/mL
CO/N=C1\CN(c2c(F)cc3c(=O)c(C(=O)O)cn4c3c2OC[C@@H]4C)CC1/C(N)=N\OC (some centres undefined) | MIC | 128 µg/mL

Turning to the following molecule.
### Prompt Value wanted: MIC (Enterococcus faecium) of entry CCO/N=C(/N)C1CN(c2nc3c(cc2F)c(=O)c(C(=O)O)cn3-c2ccc(F)cc2F)C/C1=N\OC (centres undefined)
### Response > 128 µg/mL

====

# System: Pseudomonas aeruginosa
# assay.summary: Antibacterial activity against Pseudomonas aeruginosa 09-32 after 18 to 24 hrs by twofold serial dilution method
# Type: functional
readout.name: MIC (µg/mL)
Numbers only, in µg/mL.

compound | endpoint.unit | meas.value
CO/N=C1\CN(c2c(F)cc3c(=O)c(C(=O)O)cn4c3c2OC[C@@H]4C)CC1/C(N)=N\O (some centres undefined) | µg/mL | 64
CO/N=C1\CN(c2c(F)cc3c(=O)c(C(=O)O)cn(CCF)c3c2F)CC1/C(N)=N\OC (centres undefined) | µg/mL | 64
CCO/N=C(/N)C1CN(c2c(F)cc3c(=O)c(C(=O)O)cn4c3c2OC[C@@H]4C)C/C1=N\OC (some centres undefined) | µg/mL | 16
CO/N=C1\CN(c2nc3c(cc2F)c(=O)c(C(=O)O)cn3-c2ccc(F)cc2F)CC1/C(N)=N\OC (centres undefined) | µg/mL | 128
CCO/N=C1\CN(c2c(F)cc3c(=O)c(C(=O)O)cn(C4CC4)c3c2OC)CC1/C(N)=N\O (centres undefined) | µg/mL | 64

Hi! Can you tell me MIC for each of these compounds?
1. CO/N=C1\CN(c2c(F)cc3c(=O)c(C(=O)O)cn(C4CC4)c3c2OC)CC1/C(N)=N\O (centres undefined)
2. CCO/N=C1\CN(c2nc3c(cc2F)c(=O)c(C(=O)O)cn3C2CC2)CC1/C(N)=N\OC (centres undefined)
3. CCO/N=C1\CN(c2nc3c(cc2F)c(=O)c(C(=O)O)cn3-c2ccc(F)cc2F)CC1/C(N)=N\OCC (centres undefined)

### Response
32
64
128

====

# System: Pseudomonas aeruginosa
# assay.summary: Antibacterial activity against Pseudomonas aeruginosa ATCC 27853 after 18 to 24 hrs by twofold serial dilution method
# Format: functional
Exercise: for every item that follows, state its recorded log10 MIC.
Please be aware that the numbers have been log10-transformed from MIC in µg/mL.

molecule | log10 MIC
CCO/N=C1\CN(c2c(F)cc3c(=O)c(C(=O)O)cn(CCF)c3c2F)CC1/C(N)=N\O (stereo not drawn) | 0.90

Could you report log10 MIC for every entry in the following list?
1. CCO/N=C1\CN(c2nc3c(cc2F)c(=O)c(C(=O)O)cn3-c2ccc(F)cc2F)CC1/C(N)=N\OC (stereo not drawn)
2. CO/N=C1\CN(c2nc3c(cc2F)c(=O)c(C(=O)O)cn3C2CC2)CC1CN (stereo not drawn)
3. CO/N=C1\CN(c2nc3c(cc2F)c(=O)c(C(=O)O)cn3-c2ccc(F)cc2F)CC1/C(N)=N\OC (stereo not drawn)

### Response
[1.51, 0.30, 2.11]

Lab note: each molecule below needs its log10 MIC filled in.
1. CCO/N=C1\CN(c2c(F)cc3c(=O)c(C(=O)O)cn(C4CC4)c3c2OC)CC1/C(N)=N\OCC (stereo not drawn)
2. CO/N=C1\CN(c2c(F)cc3c(=O)c(C(=O)O)cn(C4CC4)c3c2OC)CC1/C(N)=N\O (stereo not drawn)

### Response
1: 1.20; 2: 1.20

====

For each of the compounds below, state its MIC.
# System: Escherichia coli
# assay.summary: Antibacterial activity against Escherichia coli 08-21 after 18 to 24 hrs by twofold serial dilution method
# Assay type: functional

compound | readout.name | meas.value
CCO/N=C1\CN(c2c(F)cc3c(=O)c(C(=O)O)cn(C4CC4)c3c2OC)CC1/C(N)=N\OCC (configuration not stated) | MIC | 64 µg/mL
CCO/N=C1\CN(c2c(F)cc3c(=O)c(C(=O)O)cn(C4CC4)c3c2OC(F)F)CC1/C(N)=N\O (configuration not stated) | MIC | > 128 µg/mL
CO/N=C1\CN(c2nc3c(cc2F)c(=O)c(C(=O)O)cn3-c2ccc(F)cc2F)CC1/C(N)=N\OC (configuration not stated) | MIC | > 128 µg/mL
CCO/N=C(/N)C1CN(c2nc3c(cc2F)c(=O)c(C(=O)O)cn3C2CC2)C/C1=N\OC (configuration not stated) | MIC | > 128 µg/mL
CO/N=C1\CN(c2c(F)cc3c(=O)c(C(=O)O)cn4c3c2OC[C@@H]4C)CC1/C(N)=N\OC (some centres not stated) | MIC | > 128 µg/mL
CO/N=C1\CN(c2nc3c(cc2F)c(=O)c(C(=O)O)cn3C2CC2)CC1/C(N)=N\OC (configuration not stated) | MIC | > 128 µg/mL

Here are 3 compounds. What values of MIC were reported for them?
1. CCO/N=C1\CN(c2c(F)cc3c(=O)c(C(=O)O)cn(C4CC4)c3c2OC)CC1/C(N)=N\O (configuration not stated)
2. CCO/N=C1\CN(c2c(F)cc3c(=O)c(C(=O)O)cn4c3c2OC[C@@H]4C)CC1/C(N)=N\OC (some centres not stated)
3. CO/N=C1\CN(c2c(F)cc3c(=O)c(C(=O)O)cn(C4CC4)c3c2F)CC1/C(N)=N\OC (configuration not stated)

### Response
1. > 128 µg/mL
2. > 128 µg/mL
3. > 128 µg/mL

Batch request: MIC per item, same order as input.
1. CCO/N=C(/N)C1CN(c2c(F)cc3c(=O)c(C(=O)O)cn4c3c2OC[C@@H]4C)C/C1=N\OC (some centres not stated)
2. CCO/N=C(/N)C1CN(c2c(F)cc3c(=O)c(C(=O)O)cn(C4CC4)c3c2OC)C/C1=N\OC (configuration not stated)
3. CO/N=C1\CN(c2nc3c(cc2F)c(=O)c(C(=O)O)cn3C2CC2)CC1CN (configuration not stated)
4. CO/N=C1\CN(c2c(F)cc3c(=O)c(C(=O)O)cn(CCF)c3c2F)CC1/C(N)=N\O (configuration not stated)
5. CCO/N=C1\CN(c2nc3c(cc2F)c(=O)c(C(=O)O)cn3-c2ccc(F)cc2F)CC1/C(N)=N\OC (configuration not stated)
6. CCO/N=C1\CN(c2nc3c(cc2F)c(=O)c(C(=O)O)cn3C2CC2)CC1/C(N)=N\OCC (configuration not stated)

### Response
1: > 128 µg/mL; 2: > 128 µg/mL; 3: 16 µg/mL; 4: > 128 µg/mL; 5: > 128 µg/mL; 6: > 128 µg/mL

For every item below, please supply its MIC.
1. CCO/N=C(/N)C1CN(c2c(F)cc3c(=O)c(C(=O)O)cn(CC)c3c2F)C/C1=N\OC (configuration not stated)
2. CCO/N=C1\CN(c2nc3c(cc2F)c(=O)c(C(=O)O)cn3-c2ccc(F)cc2F)CC1/C(N)=N\OCC (configuration not stated)

### Response
1: > 128 µg/mL; 2: 128 µg/mL
